# Target System: human mAChR M4 (Homo sapiens)
# Construct: expressed in transfected cells
# Sequence (P08173 whole entry): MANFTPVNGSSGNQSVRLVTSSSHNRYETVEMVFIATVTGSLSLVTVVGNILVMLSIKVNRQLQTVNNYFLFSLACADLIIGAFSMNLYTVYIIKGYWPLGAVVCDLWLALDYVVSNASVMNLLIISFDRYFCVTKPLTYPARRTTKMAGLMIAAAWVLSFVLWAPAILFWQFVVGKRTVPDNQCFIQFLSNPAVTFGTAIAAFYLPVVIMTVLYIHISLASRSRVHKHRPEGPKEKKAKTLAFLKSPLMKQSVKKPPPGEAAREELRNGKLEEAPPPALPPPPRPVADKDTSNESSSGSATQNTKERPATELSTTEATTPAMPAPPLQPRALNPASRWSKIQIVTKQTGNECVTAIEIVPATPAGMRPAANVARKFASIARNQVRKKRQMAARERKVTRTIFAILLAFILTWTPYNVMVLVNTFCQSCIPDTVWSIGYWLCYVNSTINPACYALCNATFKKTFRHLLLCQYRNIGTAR
# Protocol Notes: mAChR M4 cell-based functional assay (calcium mobilization, CHO-K1 hM4-Gqi5 cells)
# Conditions Used: positive allosteric modulator activity, increase in the EC20 acetylcholine response, CHO-K1 hM4-Gqi5 cells; read-out: Human M4 EC50
Readout Type: EC50 (nM)
Numbers only; they are read as nM.

Query string: Return EC50 measured with human mAChR M4 (Homo sapiens) given this molecule: `Cc1cc(C#N)cnc1N1CCc2ncc(Nc3cc(F)ccc3F)cc2C1`
Result string: 167

Query string: // next record `Cc1cc(C(=O)N2CC(F)(F)C2)nnc1N1CCc2ncc(-n3cccn3)cc2C1`
Result string: 107

Query string: // next record `Cc1c(C(=O)NCc2ccccn2)nnc(N2CCc3ncccc3C2)c1C`
Result string: 3380

Query string: // next record `Cc1nc(Cl)c(C)c(N2CCc3ncc(N4CCCn5nccc54)cc3C2)n1`
Result string: 25
